Item-by-item account of T/C
test system: L1210 leukemia ip in BDF1 mice, survival T/C; experiment: NCI In Vivo Anticancer Drug Screen. Data for tumor model L1210 Leukemia (intraperitoneal) in B6D2F1 (BDF1) mice; details: endpoint: mean survival time; dose: 200.0 mg/kg/injection; schedule: Q01DX001 (ip); vehicle: Klucel (hydroxypropylcellulose) (HPC); higher = longer survival
Inconclusive results and toxic doses are left out.

>>> experimental_value("CC1C(=O)CC2C3(C)CCC2(C(C)C(=O)O)C(=O)C13 (centres undefined)")
"107 % of control"
>>> experimental_value("COc1ccc(C2=CC=C(c3ccccc3)C2)cc1N")
"95 % of control"
>>> experimental_value("CC12C3C(=O)NC45CCCC41C5(c1ccccc1)C32c1ccccc1 (centres undefined)")
"96 % of control"

// below: T/C requested for another compound
Would you mind telling me what T/C value was observed for CC(C)=CCC1=C(Cl)C(=O)c2ccccc2C1=O ?
104 % of control

---

Test system: L1210 leukemia ip in BDF1 mice, survival T/C
Assay: NCI In Vivo Anticancer Drug Screen. Data for tumor model L1210 Leukemia (intraperitoneal) in B6D2F1 (BDF1) mice
Conditions: endpoint: mean survival time; dose: 200.0 mg/kg/injection; schedule: Q01DX009 (ip); vehicle: Klucel (hydroxypropylcellulose) (HPC); higher = longer survival
Method: The antitumor activity of compounds was measured in mice bearing transplantable tumors. Survival or tumor size were measured and the results are expressed as the measurement made in the treated group (T) divided by the measurement made in the vehicle treated control group (C). The tumor model used in this assay is L1210 Leukemia (intraperitoneal) in B6D2F1 (BDF1) mice
Inconclusive results and toxic doses are left out.
quantity: T/C

Here's what some known entries look like.
>>> experimental_value("CC(c1ccccc1)n1ccnc1CO (stereo unspecified)")
"98 % of control"
>>> experimental_value("CCCCCCCNC(=S)NNC(=O)c1ccncc1")
"100 % of control"
>>> experimental_value("CCCCCCCC(O)CCCC (stereo unspecified)")
"104 % of control"
>>> experimental_value("N#Cc1c(N)ncc2c1CCCC2")
"105 % of control"
>>> experimental_value("COc1cc(-c2cc(-c3ccccc3)c3cc(Cl)ccc3n2)cc(OC)c1OC")
"93 % of control"

I have this compound here, CCOC(=O)C(Oc1ccc([N+](=O)[O-])cc1)C(=O)OCC , and I need its recorded T/C.
98 % of control

Requested read-out: T/C. Entry: O=C1C2C(C(=O)N1c1ccc(Br)cc1)C1(Cl)C(Cl)=C(Cl)C2(Cl)C1(Cl)Cl (stereo unspecified)
102 % of control

---

T/C values for the compounds below.
tested on: L1210 leukemia ip in BDF1 mice, survival T/C; experiment: NCI In Vivo Anticancer Drug Screen. Data for tumor model L1210 Leukemia (intraperitoneal) in B6D2F1 (BDF1) mice; details: endpoint: mean survival time; dose: 12.5 mg/kg/injection; schedule: Q01DX009 (ip); vehicle: saline with Tween-80; higher = longer survival
Inconclusive results and toxic doses are left out.

Suppose we examine the compound c1ccc(C2=NCCCO2)cc1 ; what T/C value has been reported?
100 % of control

// returns reported T/C for input CC1CCC2(NC1)OC1CC3C4CCC5CC(OC6OC(CO)C(OC7OC(CO)C(O)C(OC8OCC(O)C(O)C8O)C7OC7OC(CO)C(O)C(O)C7O)C(O)C6O)CCC5(C)C4CCC3(C)C1C2C (configuration not stated)
93 % of control

Item Clc1ccc(C[P+](c2ccccc2)(c2ccccc2)c2ccccc2)c(Cl)c1 has what recorded T/C?
94 % of control

Which T/C is listed for CC(C(=O)O)c1ccccc1 (configuration not stated) ?
95 % of control

Need T/C of N#C/C(=C\c1ccc(-c2ccccc2)cc1)c1ccccc1 , thanks.
87 % of control

Returns the measured T/C for the input compound. Input: CC(O)CN1CCCCCC1 (configuration not stated)
103 % of control

Quick one: T/C of CN1CCN(C(=O)Cc2c[nH]c3ccccc23)CC1 ?
100 % of control

---

Catalogue of T/C readings, one per entry.
test system: L1210 leukemia ip in BDF1 mice, survival T/C; test: NCI In Vivo Anticancer Drug Screen. Data for tumor model L1210 Leukemia (intraperitoneal) in B6D2F1 (BDF1) mice; details: endpoint: mean survival time; dose: 400.0 mg/kg/injection; schedule: Q04DX003 (ip); vehicle: saline; higher = longer survival
Toxic doses and inconclusive results are not listed.

Known T/C results, listed for orientation:
>>> experimental_value("CC(C)/C([O-])=N\\[N+](C)(C)Cc1ccccc1")
"98 % of control"
>>> experimental_value("CC(N)C(C)O (stereo not drawn)")
"101 % of control"
>>> experimental_value("O=C(O)CCCN1C/C(=C\\c2ccccc2)C(=O)C1=O")
"98 % of control"
>>> experimental_value("CCOC(=O)/C=C/C(=O)O.[Fe]")
"101 % of control"
>>> experimental_value("CCOC(=O)CCN(CC)CC")
"108 % of control"
>>> experimental_value("COc1cc(C(O)CN)cc(OC)c1OC (stereo not drawn)")
"91 % of control"
>>> experimental_value("COc1ccc(/C=C2\\CN(CCC(=O)O)C(=O)C2=O)cc1")
"98 % of control"
>>> experimental_value("COc1cc(OC)c(C(=O)c2ccccc2[N+](=O)[O-])c(OC)c1")
"100 % of control"

With those in mind, consider the next molecule.
Under L1210 leukemia ip in BDF1 mice, survival T/C: T/C value of OCC1(CO)CCCCO1 ?
101 % of control

---

test system: L1210 leukemia ip in BDF1 mice, survival T/C; test: NCI In Vivo Anticancer Drug Screen. Data for tumor model L1210 Leukemia (intraperitoneal) in B6D2F1 (BDF1) mice; conditions: endpoint: mean survival time; dose: 300.0 mg/kg/injection; schedule: Q04DX003 (ip); vehicle: saline; higher = longer survival
Inconclusive results and toxic doses are left out.
Here, each record is paired with measured T/C data.

Fill in the blank: the reported T/C of O=C(O)CC1CCCNC1 (stereo not given) is ____.
101 % of control

What does the record list as T/C for COc1cccc(S(C)(=O)=O)c1 ?
100 % of control

Name the recorded T/C for O=C(O)C1OC1C(=O)O (stereo not given) .
100 % of control

What T/C value was documented for this compound, CCOC(=O)n1[nH][nH]c2c(c(=O)n(C)c(=O)n2C)n1C(=O)OCC ?
94 % of control

Could you tell me which T/C is on file for NC1=NC(=S)CS1 ?
92 % of control

---

Test system: L1210 leukemia ip in BDF1 mice, survival T/C
Experiment: NCI In Vivo Anticancer Drug Screen. Data for tumor model L1210 Leukemia (intraperitoneal) in B6D2F1 (BDF1) mice
Details: endpoint: mean survival time; dose: 100.0 mg/kg/injection; schedule: Q04DX003 (ip); vehicle: saline; higher = longer survival
Procedure: The antitumor activity of compounds was measured in mice bearing transplantable tumors. Survival or tumor size were measured and the results are expressed as the measurement made in the treated group (T) divided by the measurement made in the vehicle treated control group (C). The tumor model used in this assay is L1210 Leukemia (intraperitoneal) in B6D2F1 (BDF1) mice
Inconclusive results and toxic doses are left out.
Reported T/C values follow for various compounds

>>> experimental_value("CCN(CC)CCCC#CCN1CCOCC1")
"103 % of control"
>>> experimental_value("O=c1[nH]nc(-c2ccncc2)s1")
"98 % of control"
>>> experimental_value("CC(=O)OCCN1CCC(n2ccc(=O)[nH]c2=O)C1=O (configuration not stated)")
"104 % of control"
>>> experimental_value("COc1ccc(/C=C2\\CN(CCC(=O)O)C(=O)C2=O)cc1")
"98 % of control"
>>> experimental_value("O=C(O)CCCN1C/C(=C\\c2ccccc2)C(=O)C1=O")
"104 % of control"
>>> experimental_value("O=C1CCC2(C/C1=N\\Nc1ccccc1)OCCO2")
"100 % of control"

Okay, next one:
Which T/C reading was recorded for the compound CCOC(=O)NCCCNC(=O)OCC ?
95 % of control

---

test system: L1210 leukemia ip in BDF1 mice, survival T/C; assay: NCI In Vivo Anticancer Drug Screen. Data for tumor model L1210 Leukemia (intraperitoneal) in B6D2F1 (BDF1) mice; settings: endpoint: mean survival time; dose: 5.0 mg/kg/injection; schedule: Q01DX001 (ip); vehicle: saline; higher = longer survival
Toxic doses and inconclusive results are not listed.
Below is a list of entries, each paired with its recorded T/C value.

Some solved cases for reference:
>>> experimental_value("CCN(CCO)c1ccc(N=O)cc1")
"95 % of control"
>>> experimental_value("c1cc[c]([Sn]([O][Sn]([c]2ccccc2)([c]2ccccc2)[c]2ccccc2)([c]2ccccc2)[c]2ccccc2)cc1")
"102 % of control"
>>> experimental_value("OC1COC(n2cnc3c(=S)nc[nH]c32)CC1O (configuration not stated)")
"100 % of control"

What does the data say about its T/C? Entry: CC(=O)N(N=O)c1ccc(N(N=O)C(C)=O)cc1
106 % of control

Look up T/C for this compound: Cc1nnc(NS(=O)(=O)c2ccc(N=Nc3c(N)nc(N)[nH]c3=O)cc2)s1
105 % of control

Record request: T/C value, item N#CCC[P+](c1ccccc1)(c1ccccc1)c1ccccc1
102 % of control

What value of T/C has been reported for the following compound? Cc1cc(N)c(C)c2ccncc12
103 % of control
